Here's a roundup of Ki values tested on UniProtKB P29274, taken from various published works.

> print(dat)
                                   molecule  experimental.target  measured.quantity  recorded.result
1  Cn1cc2nc(NC(=O)Nc3ccncc3)n3nc(-c4ccco4)nc3c2c1     UniProtKB P29274                 Ki           > 1 µM

Record `CCCn1c(=O)c2c(nc3[nH]c(-c4ccc(OC)cc4)cn32)n(Cc2ccccc2)c1=O` ; system UniProtKB P29274; Ki = > 1 µM

Noted Ki for CC(O)Cn1cnc2ncnc(N)c21 (stereo not drawn) , tested on UniProtKB P29274: > 100 µM

====

pKi: −log10 of the molar value.
A compilation of published pKi results with Adenosine receptor A2a (Homo sapiens, UniProt P29274).
Sequence (P29274 whole entry): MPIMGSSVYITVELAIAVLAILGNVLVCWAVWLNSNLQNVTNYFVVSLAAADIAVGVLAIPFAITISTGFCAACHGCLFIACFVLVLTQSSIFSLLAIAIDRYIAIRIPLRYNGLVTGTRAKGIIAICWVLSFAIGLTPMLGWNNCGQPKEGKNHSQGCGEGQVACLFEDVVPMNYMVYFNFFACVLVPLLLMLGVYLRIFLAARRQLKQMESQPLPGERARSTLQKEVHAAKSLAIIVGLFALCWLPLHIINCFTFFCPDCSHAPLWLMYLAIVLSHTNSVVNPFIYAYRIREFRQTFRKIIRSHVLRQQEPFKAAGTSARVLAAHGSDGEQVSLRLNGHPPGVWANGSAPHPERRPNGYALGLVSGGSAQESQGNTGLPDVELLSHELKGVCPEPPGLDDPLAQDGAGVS

Answered examples (6):
> print(dat)
                                   compound                       experimental.target  measured.quantity  recorded.result
1      Nc1nc(Cc2ccccc2)nc2cn(-c3ccccc3)nc12  Adenosine receptor A2a (Homo sapiens, UniProt P29274)                pKi             6.96
2               Nc1nc(NCc2ccccc2)c2ccccc2n1  Adenosine receptor A2a (Homo sapiens, UniProt P29274)                pKi           < 5.00
3  Cn1c(=O)c2c(cc(/C=C/c3cccc(C#N)c3)n2C)n(C)c1=O  Adenosine receptor A2a (Homo sapiens, UniProt P29274)                pKi           < 5.00
4  COc1cccc(NC(=Nc2nc3nn(C)cc3c3nc(-c4ccco4)nn23)Nc2cccc(OC)c2)c1  Adenosine receptor A2a (Homo sapiens, UniProt P29274)                pKi           < 6.00
5  COc1ccc(C(=O)Nc2nc(-c3ccccc3)c(C(=O)c3ccc(F)cc3F)s2)cc1  Adenosine receptor A2a (Homo sapiens, UniProt P29274)                pKi           < 6.00
6  C=CCN(CC=C)S(=O)(=O)c1ccc(NC(=O)Nc2ncnc3c2ncn3C2O[C@H](C(=O)NCC)C(O)C2O)cc1 (single isomer, unassigned)  Adenosine receptor A2a (Homo sapiens, UniProt P29274)                pKi           < 6.00

Turning now to a further record.
pKi in this record for `Cn1cc2c(nc(N(C(=O)c3ccccc3)C(=O)c3ccccc3)n3nc(-c4ccc(Cl)cc4)nc23)n1` : < 5.00

====

A compilation of Ki values for Adenosine receptor A2a (Homo sapiens) from the published literature.

The compound `CCCn1c(Oc2ccc(F)c(F)c2)nc2nc(C3CCCC3)[nH]c2c1=O` showed Ki equal to > 10 µM

The compound listed as `CCOC(=O)c1c(NC(=O)c2sc(Nc3ccc(C)cc3)nc2C)sc(C(=O)OC)c1C` shows Ki equal to > 30 µM

Per the record, CCNC(=O)[C@H]1OC(n2cnc3c(NC(=O)Nc4ccc(S(=O)(=O)N5CC=CC5)cc4)ncnc32)C(O)C1O (single isomer, unassigned) has Ki of > 1 µM

`CCCn1c(=O)c2[nH]c(-c3cnn(Cc4nc(-c5cccc(C)c5)no4)c3)nc2n(CCC)c1=O` has a reported Ki of > 5 µM

# Ki (compound: `Cn1cc2c(nc(NC(=O)NC3CCN(Cc4ccc(C#N)cc4)CC3)n3nc(-c4ccco4)nc23)n1` ) is 2.22 µM
